target.or.system: AMPK complex 1 (containing alpha1beta1gamma1) (Homo sapiens, UniProt Q13131+Q9Y478)
Construct: GST (Glutathion S transferase) (N); virus made in Sf9, expression in High Five cells
Sequence (Q13131 whole entry): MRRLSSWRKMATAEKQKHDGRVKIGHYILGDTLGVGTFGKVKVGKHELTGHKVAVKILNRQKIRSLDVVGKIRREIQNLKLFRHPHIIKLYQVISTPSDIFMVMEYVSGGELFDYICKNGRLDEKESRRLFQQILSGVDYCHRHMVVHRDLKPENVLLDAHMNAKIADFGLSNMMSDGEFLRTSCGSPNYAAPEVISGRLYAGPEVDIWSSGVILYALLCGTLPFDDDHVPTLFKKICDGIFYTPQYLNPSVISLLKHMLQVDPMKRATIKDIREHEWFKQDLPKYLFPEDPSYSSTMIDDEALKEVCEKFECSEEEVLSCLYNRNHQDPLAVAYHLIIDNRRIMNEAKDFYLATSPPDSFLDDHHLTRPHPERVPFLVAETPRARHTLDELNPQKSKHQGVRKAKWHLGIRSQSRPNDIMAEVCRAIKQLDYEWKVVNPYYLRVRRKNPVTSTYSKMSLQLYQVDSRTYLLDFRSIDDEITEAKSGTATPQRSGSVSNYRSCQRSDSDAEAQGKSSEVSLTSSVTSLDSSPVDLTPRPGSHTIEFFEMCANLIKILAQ
Sequence (Q9Y478 whole entry): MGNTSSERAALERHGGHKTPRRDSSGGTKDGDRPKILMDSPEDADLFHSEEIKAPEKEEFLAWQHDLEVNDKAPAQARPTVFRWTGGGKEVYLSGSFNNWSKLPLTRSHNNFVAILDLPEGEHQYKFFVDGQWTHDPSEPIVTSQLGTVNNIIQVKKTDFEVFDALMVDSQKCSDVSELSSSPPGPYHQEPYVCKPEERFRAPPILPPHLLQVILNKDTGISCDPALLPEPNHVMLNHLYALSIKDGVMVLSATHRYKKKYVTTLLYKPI
Sequence (P54619 whole entry partner): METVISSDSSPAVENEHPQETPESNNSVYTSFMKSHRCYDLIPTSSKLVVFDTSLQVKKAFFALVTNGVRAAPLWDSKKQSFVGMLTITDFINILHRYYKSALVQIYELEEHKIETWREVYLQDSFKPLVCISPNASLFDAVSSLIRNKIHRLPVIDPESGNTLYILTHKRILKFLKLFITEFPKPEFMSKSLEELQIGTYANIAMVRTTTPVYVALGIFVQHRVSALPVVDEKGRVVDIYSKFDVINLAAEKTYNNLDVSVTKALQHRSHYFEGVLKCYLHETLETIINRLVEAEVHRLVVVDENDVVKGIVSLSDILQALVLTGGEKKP
protocol: In vitro AMPK activation assay (ADP-Glo Kinase Assay)
conditions.used: 30 μM ATP, 1 μM peptide, 60 min, room temperature
measurement.type: log10 of EC50 (log10 of the value in nM)
A difference of one corresponds to tenfold EC50; all values are log10 with EC50 in nM.

See these solved cases before continuing.
CS(C)(=O)=NCc1ccc(-c2ccc(-c3nc4[nH]c(O[C@@H]5CO[C@H]6[C@@H]5OC[C@H]6O)nc4cc3Cl)cc2)nc1; 1.20
CS(=N)(=O)c1cccc(-c2ccc(-c3nc4[nH]c(O[C@@H]5CO[C@H]6[C@@H]5OC[C@H]6O)nc4cc3Cl)cc2)c1 (stereo partly drawn); 2.32
O=C(N=S1(=O)CCCCC1)c1ccc(-c2nc3[nH]c(O[C@@H]4CO[C@H]5[C@@H]4OC[C@H]5O)nc3cc2Cl)cc1; 2.33
CS(C)(=O)=NCc1ccnc(-c2ccc(-c3nc4[nH]c(O[C@@H]5CO[C@H]6[C@@H]5OC[C@H]6O)nc4cc3Cl)cc2)c1; 1.57
CS(=N)(=O)[C@H]1CC[C@@H](c2ccc(-c3nc4[nH]c(O[C@@H]5CO[C@H]6[C@@H]5OC[C@H]6O)nc4cc3Cl)cc2)CC1 (stereo partly drawn); 2.42

Provide log10 of EC50 values for the following items, in order.
1. N=S1(=O)CCC(c2ccc(-c3nc4[nH]c(O[C@@H]5CO[C@H]6[C@@H]5OC[C@H]6O)nc4cc3Cl)cc2)CC1 (single isomer, unassigned) [Example 55]
2. CS(C)(=O)=Nc1ccc(-c2ccc(-c3nc4[nH]c(O[C@@H]5CO[C@H]6[C@@H]5OC[C@H]6O)nc4cc3Cl)cc2)cc1
3. CS(=O)(=Nc1ccc(-c2ccc(-c3nc4[nH]c(O[C@@H]5CO[C@H]6[C@@H]5OC[C@H]6O)nc4cc3Cl)cc2)cc1)C1CC1 (stereo partly drawn)
4. CS(=O)(=Nc1ccc(-c2nc3[nH]c(O[C@@H]4CO[C@H]5[C@@H]4OC[C@H]5O)nc3cc2Cl)cc1)c1ccncc1 (stereo partly drawn)
5. C[S@](=O)(=Nc1ccc(-c2nc3[nH]c(O[C@@H]4CO[C@H]5[C@@H]4OC[C@H]5O)nc3cc2Cl)cc1)c1ccccc1

Marked response:
1: 1.41; 2: 0.48; 3: 1.61; 4: 2.16; 5: 2.76

Provide log10 of EC50 values for the following items, in order.
1. CS(C)(=O)=Nc1cccc(-c2ccc(-c3nc4[nH]c(O[C@@H]5CO[C@H]6[C@@H]5OC[C@H]6O)nc4cc3Cl)cc2)c1
2. CS(=N)(=O)c1cnc(-c2ccc(-c3nc4[nH]c(O[C@@H]5CO[C@H]6[C@@H]5OC[C@H]6O)nc4cc3Cl)cc2)nc1 (stereo partly drawn)

Marked response:
1. 0.78
2. 1.41

----------
Could you please report measured pEC50 for the items listed next?
target.or.system: AMPK complex 1 (containing alpha1beta1gamma1) (Homo sapiens, UniProt Q13131+Q9Y478)
Construct: GST (Glutathion S transferase) (N); virus made in Sf9, expression in High Five cells
protocol: In vitro AMPK activation assay (ADP-Glo Kinase Assay)
conditions.used: 30 μM ATP, 1 μM peptide, 60 min, room temperature
Numbers only, as −log10 of the molar value.

See these solved cases before continuing.
CS(C)(=O)=Nc1cnc(-c2ccc(-c3nc4[nH]c(O[C@@H]5CO[C@H]6[C@@H]5OC[C@H]6O)nc4cc3Cl)cc2)cn1; 8.10
CS(C)(=O)=Nc1cccc(-c2ccc(-c3nc4[nH]c(O[C@@H]5CO[C@H]6[C@@H]5OC[C@H]6O)nc4cc3Cl)cc2)n1; 7.17

// switching to the query compound
GET /value?item= `CS(C)(=O)=Nc1ccc(-c2ccc(-c3nc4[nH]c(O[C@@H]5CO[C@H]6[C@@H]5OC[C@H]6O)nc4cc3Cl)cc2)nc1` &field=pEC50 returns 8.70

----------
target.or.system: AMPK complex 1 (containing alpha1beta1gamma1) (Homo sapiens, UniProt Q13131+Q9Y478)
Construct: GST (Glutathion S transferase) (N); virus made in Sf9, expression in High Five cells
protocol: In vitro AMPK activation assay (ADP-Glo Kinase Assay)
conditions.used: 30 μM ATP, 1 μM peptide, 60 min, room temperature
pEC50: −log10 of the molar value.
Labels assigned by pEC50 range: group A (below 7), group B (7 to below 8), group C (8 or more)

Answered examples (6):
CN=S(C)(=O)c1ccc(-c2ccc(-c3nc4[nH]c(O[C@@H]5CO[C@H]6[C@@H]5OC[C@H]6O)nc4cc3Cl)cc2)nc1 (stereo partly drawn) [Example 28]; group C
N=S1(=O)CC=C(c2ccc(-c3nc4[nH]c(O[C@@H]5CO[C@H]6[C@@H]5OC[C@H]6O)nc4cc3Cl)cc2)CC1 (stereo partly drawn) [Example 40]; group B
CS(C)(=O)=Nc1ccc(-c2ncc(-c3nc4[nH]c(O[C@@H]5CO[C@H]6[C@@H]5OC[C@H]6O)nc4cc3Cl)cn2)cc1 [Example 42]; group A
CS(C)(=O)=Nc1ccc2c(c1)CN(c1ccc(-c3nc4[nH]c(O[C@@H]5CO[C@H]6[C@@H]5OC[C@H]6O)nc4cc3Cl)cc1)C2 [Example 43]; group A
CS(C)(=O)=NC(=O)c1ccc(-c2nc3[nH]c(O[C@@H]4CO[C@H]5[C@@H]4OC[C@H]5O)nc3cc2Cl)cc1 [Example 3]; group A
CCS(C)(=O)=Nc1ccc(-c2ccc(-c3nc4[nH]c(O[C@@H]5CO[C@H]6[C@@H]5OC[C@H]6O)nc4cc3Cl)cc2)cc1 (stereo partly drawn) [Example 13]; group C

Exam item: Hi, small favor: classify CS(C)(=O)=Nc1ccc(-c2ccc(-c3nc4[nH]c(O[C@@H]5CO[C@H]6[C@@H]5OC[C@H]6O)nc4cc3Cl)cc2)cn1 [Example 22] by its pEC50 when you get a moment.
Marked response: group B

----------
protocol: Aqueous solubility (buffer vs acetonitrile/water, 24 h shaking, LC-UV)
Assay type: physicochemical
conditions.used: kinetic from dmso stock, pH 2.2 buffer, 2.5% DMSO, ">" = more than 90% dissolved
Could you please report measured solubility at 24 h for the items listed next?

CS(C)(=O)=NCC1CCN(c2ccc(-c3nc4[nH]c(O[C@@H]5CO[C@H]6[C@@H]5OC[C@H]6O)nc4cc3Cl)cc2)CC1; > 122 µg/mL
CS(C)(=O)=Nc1ccc(-c2ccc(-c3nc4[nH]c(O[C@@H]5CO[C@H]6[C@@H]5OC[C@H]6O)nc4cc3Cl)cc2)cn1; < 80 µg/mL
CS(C)(=O)=Nc1ccc(-c2ccc(-c3nc4[nH]c(O[C@@H]5CO[C@H]6[C@@H]5OC[C@H]6O)nc4cc3Cl)cc2)nn1; > 128 µg/mL

Provide solubility at 24 h values for the following items, in order.
1. CS(C)(=O)=NCc1ccc(-c2ccc(-c3nc4[nH]c(O[C@@H]5CO[C@H]6[C@@H]5OC[C@H]6O)nc4cc3Cl)cc2)cn1
2. CS(C)(=O)=NCc1ccc(-c2ccc(-c3nc4[nH]c(O[C@@H]5CO[C@H]6[C@@H]5OC[C@H]6O)nc4cc3Cl)cc2)cc1

Marked response:
["> 146 µg/mL", "> 119 µg/mL"]

----------
Could you please report measured solubility at 24 h for the items listed next?
protocol: Aqueous solubility (buffer vs acetonitrile/water, 24 h shaking, LC-UV)
Assay type: physicochemical
conditions.used: kinetic from dmso stock, pH 4.5 buffer, 2.5% DMSO, ">" = more than 90% dissolved

CS(=O)(=NC#N)c1ccc(-c2ccc(-c3nc4[nH]c(O[C@@H]5CO[C@H]6[C@@H]5OC[C@H]6O)nc4cc3Cl)cc2)cc1 (some centres unmarked) [Example 7]; < 1 µg/mL
CS(C)(=O)=Nc1ccc(-c2ccc(-c3nc4[nH]c(O[C@@H]5CO[C@H]6[C@@H]5OC[C@H]6O)nc4cc3Cl)cc2)cn1 [Example 22]; > 7 µg/mL
CN=S(C)(=O)c1ccc(-c2ccc(-c3nc4[nH]c(O[C@@H]5CO[C@H]6[C@@H]5OC[C@H]6O)nc4cc3Cl)cc2)nc1 (some centres unmarked) [Example 28]; < 1 µg/mL

Provide solubility at 24 h values for the following items, in order.
1. CS(=N)(=O)c1ccc(-c2ccc(-c3nc4[nH]c(O[C@@H]5CO[C@H]6[C@@H]5OC[C@H]6O)nc4cc3Cl)cc2)nc1 (some centres unmarked) [Example 27]
2. CS(C)(=O)=Nc1ccc(-c2ccc(-c3nc4[nH]c(O[C@@H]5CO[C@H]6[C@@H]5OC[C@H]6O)nc4cc3Cl)cc2)nn1 [Example 50]
3. CS(C)(=O)=Nc1cc(-c2ccc(-c3nc4[nH]c(O[C@@H]5CO[C@H]6[C@@H]5OC[C@H]6O)nc4cc3Cl)cc2)ccn1 [Example 36]
4. CS(=N)(=O)Cc1ccc(-c2ccc(-c3nc4[nH]c(O[C@@H]5CO[C@H]6[C@@H]5OC[C@H]6O)nc4cc3Cl)cc2)cc1 (some centres unmarked) [Example 52]
5. CN=S(C)(=O)c1ccc(-c2ccc(-c3nc4[nH]c(O[C@@H]5CO[C@H]6[C@@H]5OC[C@H]6O)nc4cc3Cl)cc2)cc1 (some centres unmarked) [Example 10]

Marked response:
["< 1 µg/mL", "> 117 µg/mL", "< 1 µg/mL", "< 1 µg/mL", "< 1 µg/mL"]
